Cited source for all entries: patent US9925193B2

Molecular target: AXL (Homo sapiens)
Sequence (P30530 26-894): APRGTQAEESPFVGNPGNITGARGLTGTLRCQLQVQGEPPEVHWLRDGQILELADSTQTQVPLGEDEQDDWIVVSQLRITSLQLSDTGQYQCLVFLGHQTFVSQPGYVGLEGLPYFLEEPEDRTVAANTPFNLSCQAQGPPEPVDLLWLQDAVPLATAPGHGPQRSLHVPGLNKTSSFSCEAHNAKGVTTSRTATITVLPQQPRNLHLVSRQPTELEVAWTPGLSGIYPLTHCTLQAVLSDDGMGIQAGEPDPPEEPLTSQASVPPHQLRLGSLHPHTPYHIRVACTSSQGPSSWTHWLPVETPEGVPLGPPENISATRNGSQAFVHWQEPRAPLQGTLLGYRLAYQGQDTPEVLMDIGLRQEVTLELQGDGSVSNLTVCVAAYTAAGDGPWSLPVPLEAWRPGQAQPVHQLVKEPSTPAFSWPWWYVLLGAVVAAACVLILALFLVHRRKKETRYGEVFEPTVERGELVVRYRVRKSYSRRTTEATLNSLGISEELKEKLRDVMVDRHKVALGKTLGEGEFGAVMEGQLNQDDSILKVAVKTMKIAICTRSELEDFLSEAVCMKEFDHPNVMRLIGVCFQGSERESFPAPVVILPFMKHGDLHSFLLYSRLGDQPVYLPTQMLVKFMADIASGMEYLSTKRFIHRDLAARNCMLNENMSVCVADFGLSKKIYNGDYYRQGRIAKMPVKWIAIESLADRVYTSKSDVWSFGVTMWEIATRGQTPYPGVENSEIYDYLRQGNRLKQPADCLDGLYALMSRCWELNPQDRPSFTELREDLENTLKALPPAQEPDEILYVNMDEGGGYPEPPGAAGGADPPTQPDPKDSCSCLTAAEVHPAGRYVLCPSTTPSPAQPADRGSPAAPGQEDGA
Assay: 33PanQinase Activity Assay, AXL
Details: recombinant human protein kinase, 1 μM [γ-33P]-ATP, 30° C. 80 minutes
pIC50: −log10 of the molar value.
Assign class by pIC50: not lower than 5 means Satisfied; lower than 5 means Not satisfied.

Known results for compounds:
> print(dat)
                                test.smiles  qualitative.label
1  COc1ccc(-c2cc3ncnc(Sc4nnc(-c5ccccc5)o4)c3s2)cc1          Satisfied
2  COc1cccc(Cc2nnc(Sc3ncnc4cc(-c5ccc(F)cc5)sc34)o2)c1          Satisfied
3  Fc1ccc(-c2cc3ncnc(Sc4nnc(Cc5ccccc5)o4)c3s2)cc1          Satisfied
4  CC(C)(C)c1nnc(Sc2ncnc3cc(-c4ccc(F)cc4)sc23)o1          Satisfied
5  O=C1CCCCCN1Cc1nnc(Sc2ncnc3cc(-c4ccc(Cl)cc4)sc23)o1          Satisfied
6  Fc1ccc(-c2cc3ncnc(Sc4nnc(CN5CCCC5)o4)c3s2)cc1          Satisfied
7  c1ccc(Cc2nnc(Sc3ncnc4[nH]c(-c5ccccc5)nc34)o2)cc1      Not satisfied
8  Fc1ccc(-c2cc3ncnc(Sc4nnc(-c5ccncc5)o4)c3s2)cc1          Satisfied

Exercise: // inclusive: pIC50 at least 5? input: COc1ccc(-c2cc3nc(N)nc(Sc4nnc(-c5ccc(Cl)cc5)o4)c3s2)cc1
Solution: Satisfied

Exercise: Continue with c1ccc(-c2nc3c(Sc4nnc(-c5ccncc5)o4)ncnc3[nH]2)cc1
Solution: Not satisfied

Exercise: Follow-up item: COc1ccc(-c2cc3ncnc(Sc4nnc(-c5ccccc5C)o4)c3s2)cc1
Solution: Satisfied

Exercise: // same read-out, input: COc1ccc(-c2cc3ncnc(Sc4nnc(-c5ccc(Cl)cc5)o4)c3s2)cc1
Solution: Satisfied

Exercise: Record: Fc1ccc(-c2cc3ncnc(Sc4nnc(-c5ccccc5)o4)c3s2)cc1
Solution: Satisfied
